Attribution: the supplement of paper PMC6757056

B1: library; a variant is named by its letters at N, in order (parent)
chain: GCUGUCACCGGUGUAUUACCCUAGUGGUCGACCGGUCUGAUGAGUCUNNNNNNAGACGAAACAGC

# Variants of: B1
# procedure_details: FACS-Seq fitted mean relative fluorescence mCherry/BFP without ligand (log10 relative fluorescence); ligand: hypoxanthine (xanthine aptamer); higher = higher reporter protein expression
# reported_conditions: HEK293T, ligand present: no
For each record, write down the corresponding FACS-Seq fitted mean (log10).
Answers are plain numbers.

# polymer_sequence, readout, readout_number
data = [
    ("GCUGUCACCGGUGUAUUACCCUAGUGGUCGACCGGUCUGAUGAGUCUCUUGAAAGACGAAACAGC [CUUGAA]", "FACS-Seq fitted mean (log10)", 0.0914),
    ("GCUGUCACCGGUGUAUUACCCUAGUGGUCGACCGGUCUGAUGAGUCUAGCUGGAGACGAAACAGC [AGCUGG]", "FACS-Seq fitted mean (log10)", -0.403),
    ("GCUGUCACCGGUGUAUUACCCUAGUGGUCGACCGGUCUGAUGAGUCUACAAGAAGACGAAACAGC [ACAAGA]", "FACS-Seq fitted mean (log10)", 0.164),
    ("GCUGUCACCGGUGUAUUACCCUAGUGGUCGACCGGUCUGAUGAGUCUAAGGUUAGACGAAACAGC [AAGGUU]", "FACS-Seq fitted mean (log10)", 0.941),
    ("GCUGUCACCGGUGUAUUACCCUAGUGGUCGACCGGUCUGAUGAGUCUUAAGACAGACGAAACAGC [UAAGAC]", "FACS-Seq fitted mean (log10)", 0.419),
    ("GCUGUCACCGGUGUAUUACCCUAGUGGUCGACCGGUCUGAUGAGUCUGCCUUCAGACGAAACAGC [GCCUUC]", "FACS-Seq fitted mean (log10)", -0.325),
    ("GCUGUCACCGGUGUAUUACCCUAGUGGUCGACCGGUCUGAUGAGUCUCCCUCUAGACGAAACAGC [CCCUCU]", "FACS-Seq fitted mean (log10)", 0.556),
    ("GCUGUCACCGGUGUAUUACCCUAGUGGUCGACCGGUCUGAUGAGUCUUGACAGAGACGAAACAGC [UGACAG]", "FACS-Seq fitted mean (log10)", 0.589),
]

Parameters: items (list). Returns: FACS-Seq fitted mean (log10) for each item.
1. GCUGUCACCGGUGUAUUACCCUAGUGGUCGACCGGUCUGAUGAGUCUUCAACAAGACGAAACAGC [UCAACA]
2. GCUGUCACCGGUGUAUUACCCUAGUGGUCGACCGGUCUGAUGAGUCUGAUAUAAGACGAAACAGC [GAUAUA]
3. GCUGUCACCGGUGUAUUACCCUAGUGGUCGACCGGUCUGAUGAGUCUUGGCAUAGACGAAACAGC [UGGCAU]
4. GCUGUCACCGGUGUAUUACCCUAGUGGUCGACCGGUCUGAUGAGUCUUAUAUGAGACGAAACAGC [UAUAUG]
5. GCUGUCACCGGUGUAUUACCCUAGUGGUCGACCGGUCUGAUGAGUCUGGGUCCAGACGAAACAGC [GGGUCC]
6. GCUGUCACCGGUGUAUUACCCUAGUGGUCGACCGGUCUGAUGAGUCUAGUUCAAGACGAAACAGC [AGUUCA]

A)
1: 0.101; 2: 0.804; 3: 0.353; 4: 0.385; 5: 0.29; 6: 0.179

Parameters: items (list). Returns: FACS-Seq fitted mean (log10) for each item.
1. GCUGUCACCGGUGUAUUACCCUAGUGGUCGACCGGUCUGAUGAGUCUUGCAAAAGACGAAACAGC [UGCAAA]
2. GCUGUCACCGGUGUAUUACCCUAGUGGUCGACCGGUCUGAUGAGUCUAAAACAAGACGAAACAGC [AAAACA]
3. GCUGUCACCGGUGUAUUACCCUAGUGGUCGACCGGUCUGAUGAGUCUACAGGGAGACGAAACAGC [ACAGGG]
4. GCUGUCACCGGUGUAUUACCCUAGUGGUCGACCGGUCUGAUGAGUCUGCCGAUAGACGAAACAGC [GCCGAU]
5. GCUGUCACCGGUGUAUUACCCUAGUGGUCGACCGGUCUGAUGAGUCUUAAUCGAGACGAAACAGC [UAAUCG]

A)
0.613
0.709
0.428
0.193
-0.0742

Parameters: items (list). Returns: FACS-Seq fitted mean (log10) for each item.
1. GCUGUCACCGGUGUAUUACCCUAGUGGUCGACCGGUCUGAUGAGUCUAUAUAGAGACGAAACAGC [AUAUAG]
2. GCUGUCACCGGUGUAUUACCCUAGUGGUCGACCGGUCUGAUGAGUCUUAGCGAAGACGAAACAGC [UAGCGA]
3. GCUGUCACCGGUGUAUUACCCUAGUGGUCGACCGGUCUGAUGAGUCUUAUCGCAGACGAAACAGC [UAUCGC]

A)
1. 0.389
2. 0.324
3. 0.437
